# AurA enz pIC50 per entry
molecular target: AURKA (Aurora A) (Homo sapiens (Human), UniProt O14965); test: Aurora-A enzyme assay (Z'-LYTE); assay type: biochemical; settings: 10 μM ATP; arithmetic mean of two or more experiments
Sequence (O14965 whole entry): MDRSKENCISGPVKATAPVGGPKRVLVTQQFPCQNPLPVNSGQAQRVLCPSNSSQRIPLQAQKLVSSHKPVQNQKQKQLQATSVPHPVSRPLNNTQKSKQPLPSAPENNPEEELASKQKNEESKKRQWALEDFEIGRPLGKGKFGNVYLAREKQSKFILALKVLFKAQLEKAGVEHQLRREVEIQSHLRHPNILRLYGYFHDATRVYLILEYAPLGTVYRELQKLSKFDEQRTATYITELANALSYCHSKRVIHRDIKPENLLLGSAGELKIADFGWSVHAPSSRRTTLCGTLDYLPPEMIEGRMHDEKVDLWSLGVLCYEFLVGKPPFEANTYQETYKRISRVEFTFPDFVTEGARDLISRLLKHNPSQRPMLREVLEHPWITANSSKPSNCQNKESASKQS

Exercise: AurA enz pIC50 of Cc1cc2nccnc2cc1Nc1ncc2c(n1)n([C@H]1CCOC1)c(=O)n2C [Example 22] on AURKA (Aurora A) (Homo sapiens (Human), UniProt O14965)?
Solution: <5

Exercise: AurA enz pIC50 of CCN1CCC(n2c(=O)n(C)c3cnc(Nc4cc5cccnc5cc4C)nc32)CC1 [Example 50] on AURKA (Aurora A) (Homo sapiens (Human), UniProt O14965)?
Solution: <5

Exercise: AurA enz pIC50 of Cc1cc2nccnc2cc1Nc1ncc2c(n1)n([C@H]1CCCOC1)c(=O)n2C [Example 28] on AURKA (Aurora A) (Homo sapiens (Human), UniProt O14965)?
Solution: 5.3

***
Exercise: AurA enz pIC50 of CC(=O)N1CCC(n2c(=O)n(C)c3cnc(Nc4cc5nc(C)cnc5cc4C)nc32)CC1 [Example 5] on AURKA (Aurora A) (Homo sapiens (Human), UniProt O14965)?
Solution: <5
